The entries below are paired with their reported TGI.
Test system: SR leukemia
assayExplanation: NCI tumour cell line growth inhibition, 48 h

Provide measured TGI on SR leukemia for C=C1C(=O)O[C@@H]2C[C@@]3(C)[C@H](O)CCC(=C)[C@@H]3C[C@H]12 please.
14 µM

Provide measured TGI on SR leukemia for O=C(Nc1ccccc1C(=O)NC(=O)c1ccccc1NC(=O)c1ccccc1)c1ccccc1 please.
8.52 µM

Provide measured TGI on SR leukemia for C/C(CCN(C)C)=N/O please.
5.67 µM

Provide measured TGI on SR leukemia for CC(C)(NO)/C(=N\O)c1ccccc1 please.
> 10 µM

###

The entries below are paired with their reported TGI.
System: A549 NSCLC
assayExplanation: NCI tumour cell line growth inhibition, 48 h

Answered examples (5):
COc1cccc2c(=O)oc(-c3ccccc3C)nc12: > 100 µM
COCOC1CCCC[C@@]1(OCCOCCO[C@@]1(c2ccccc2)CCCC[C@H]1OCOC)c1ccccc1 (stereo partly drawn): > 100 µM
[C-]#[O+].[Cl][Sn]([Cl])[Cl].[Cl][Sn]([Cl])[Cl].[Pt].c1cnc2c(c1)ccc1cccnc12: > 100 µM
O=c1[nH]ncc2[nH]c3c(c12)CCc1ccccc1-3: > 100 µM
O=c1[nH]nc(Nc2ccc(Cl)cc2)c2nnn(C3CCCCC3)c12: > 100 µM

Let me know recorded TGI for C#Cc1cccc(NC(=O)/C=C\C(=O)O)c1 , thanks.
> 100 µM

Let me know recorded TGI for O=C(O)[C@H]1NC[C@H]2C(Br)=NO[C@@H]12 , thanks.
> 100 µM

Let me know recorded TGI for C/C(=C/CCC(C)[C@@H]1CC[C@]2(C)C3=C(CC[C@@]12C)[C@@]1(C)CCC(=O)C(C)(C)[C@@H]1CC3)C(=O)O (stereo partly drawn) , thanks.
1.84 µM

Let me know recorded TGI for CCOC1c2nc3ccccc3nc2-c2ccccc2N1C(C)=O (stereo not drawn) , thanks.
> 100 µM

Let me know recorded TGI for CCNC(=S)N/N=C(/C)c1cccc(/C(C)=N\NC(=S)NCC)n1 , thanks.
> 82.9 µM

Let me know recorded TGI for Cc1ccc2ccc3c4ccccc4ccc3c2c1 , thanks.
> 100 µM

Let me know recorded TGI for CCOC(=O)C1C(c2ccc(Br)cc2)N(Cc2ccccc2)C(c2ccc(Br)cc2)C(C(=O)OC)S1(=O)=O (stereo not drawn) , thanks.
> 100 µM

Let me know recorded TGI for CC(=O)Nc1cccc(C#Cc2cncnc2Nc2ccc(OCc3cccc(F)c3)c(Cl)c2)c1 , thanks.
> 25 µM
